Where these numbers come from: patent US8791132B2

- tested-system: human recombinant adrenergic α2B receptor (Homo sapiens, UniProt P18089)
- Construct: expressed in transfected cells; host or cells: CHO-K1
- Sequence (P18089 1-450): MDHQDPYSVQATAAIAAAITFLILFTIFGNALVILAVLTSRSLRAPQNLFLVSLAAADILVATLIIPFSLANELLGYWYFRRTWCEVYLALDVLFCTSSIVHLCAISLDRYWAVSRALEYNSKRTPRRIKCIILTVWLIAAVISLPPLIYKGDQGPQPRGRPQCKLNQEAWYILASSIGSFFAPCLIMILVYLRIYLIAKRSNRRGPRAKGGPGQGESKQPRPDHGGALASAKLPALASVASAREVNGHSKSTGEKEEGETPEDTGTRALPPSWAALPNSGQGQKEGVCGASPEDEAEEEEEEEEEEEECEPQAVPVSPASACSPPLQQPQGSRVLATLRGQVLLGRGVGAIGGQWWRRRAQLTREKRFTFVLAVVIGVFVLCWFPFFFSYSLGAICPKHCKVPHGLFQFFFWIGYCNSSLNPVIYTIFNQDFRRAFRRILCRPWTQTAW
- experimental-details: Radioligand binding, adrenergic α2B ([3H]Rauwolscine)
- assay-conditions: 0.03 μM compound; read-out: Percentage inhibition of ligand binding, Adrenergic α2B
quantity-name: inhibition at 0.03 µM (%)

CC1c2c(c3cc(Cl)ccc3n2CC(O)c2ccncc2)CCN1C (stereo not shown): 47
CCC1c2c(c3cc(C)ccc3n2CC(O)c2ccncc2)CCN1C (stereo not shown): 18
C/C(=C\n1c2c(c3cc(C)ccc31)CN(C)CC2)c1ccncc1: 96
OC(Cn1c2c(c3cc(Cl)ccc31)CNCC2)c1cccnc1 (stereo not shown): 35

(1) Cc1ccc2c(n1)c1c(n2CC(C)(O)c2cccnc2)CCN2CCCC12 (stereo not shown)
(2) Cc1ccc2c(c1)c1c(n2CC(O)c2ccc(O)nc2)CCN(C)C1 (stereo not shown)
*Q* Please tell me which of the two, 1 or 2 , has the higher reported inhibition at 0.03 µM value. Reply with the label of the item you choose.
*A* 2
(2: 25%, 1: 7%)
